Assayed system: Glucocorticoid receptor (Homo sapiens) (UniProt P04150)
Sequence (P04150 whole entry, looked up): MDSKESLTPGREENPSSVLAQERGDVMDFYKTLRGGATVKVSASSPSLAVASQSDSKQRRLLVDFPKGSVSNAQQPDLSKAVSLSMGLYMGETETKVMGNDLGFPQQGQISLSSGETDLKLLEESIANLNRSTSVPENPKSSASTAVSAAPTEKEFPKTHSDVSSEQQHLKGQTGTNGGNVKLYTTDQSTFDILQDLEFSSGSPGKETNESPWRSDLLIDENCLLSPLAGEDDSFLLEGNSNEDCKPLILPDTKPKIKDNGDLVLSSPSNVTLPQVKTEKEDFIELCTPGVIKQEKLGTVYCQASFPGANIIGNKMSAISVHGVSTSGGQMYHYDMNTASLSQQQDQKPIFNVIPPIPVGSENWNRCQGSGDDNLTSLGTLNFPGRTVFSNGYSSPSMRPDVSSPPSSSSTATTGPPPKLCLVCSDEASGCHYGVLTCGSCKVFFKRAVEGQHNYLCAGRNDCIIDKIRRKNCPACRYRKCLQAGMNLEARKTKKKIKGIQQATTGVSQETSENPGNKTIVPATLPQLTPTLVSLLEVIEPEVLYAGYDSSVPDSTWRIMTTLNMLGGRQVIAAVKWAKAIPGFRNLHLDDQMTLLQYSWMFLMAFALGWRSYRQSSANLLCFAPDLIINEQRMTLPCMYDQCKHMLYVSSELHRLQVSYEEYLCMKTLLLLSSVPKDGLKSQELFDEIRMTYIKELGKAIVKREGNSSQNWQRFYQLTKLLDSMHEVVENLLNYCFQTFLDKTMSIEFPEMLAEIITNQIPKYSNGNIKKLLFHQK
Experiment summary: GR-GFP Redistribution (AID 450); note: potency is the fitted concentration of half-maximal effect
Test context: U2OS GR-GFP nuclear translocation, laser cytometry, 2 h; series mostly up to 20.6 µM
Active and inactive are the calls of the source.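 Rule for the calls: active = compounds whose dose series gives a full or clear partial fitted curve of increased nuclear translocation; inconclusive = weak partial curve or effect only at the top dose; inactive = no dose-dependent translocation response.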
Quick reference for Potency among some molecules

[
  {
    "Molecule": "CC(=O)/C=C(\\C)NCCNc1c(F)c(F)c(CO)c(F)c1F",
    "Experimental value": "> 20.6 µM (inactive)"
  },
  {
    "Molecule": "C[N+]1(CCNC(=O)/C=N/O)CCCCC1",
    "Experimental value": "> 20.6 µM (inactive)"
  },
  {
    "Molecule": "CCCOc1ccc(C(C)=O)cc1CSCCC#N",
    "Experimental value": "> 20.6 µM (inactive)"
  },
  {
    "Molecule": "CNC(=O)CC(C(=O)O)c1ccc(OC(C)C)cc1 (centres undefined)",
    "Experimental value": "> 20.6 µM (inactive)"
  },
  {
    "Molecule": "COCCCNC(=O)C(C#N)c1nc2ccccc2nc1N1CCCC1 (centres undefined)",
    "Experimental value": "> 20.6 µM (inactive)"
  },
  {
    "Molecule": "CCC(=O)Nc1ccc(-c2nnc(-c3ccccc3)o2)cc1",
    "Experimental value": "> 20.6 µM (inactive)"
  }
]

Input: Find the measured Potency of "CCn1cc(C(=O)NCCc2ccccc2)c(=O)c2cc(F)c(N3CCN(C)CC3)cc21" and report it.
Output: > 20.6 µM (inactive)

Input: Find the measured Potency of "Cc1csc2nc(CSc3nc4ccccc4o3)cn12" and report it.
Output: > 20.6 µM (inactive)

Input: Find the measured Potency of "Cc1cc(=O)oc2c(CN3CCN(C)CC3)c(O)c(Cl)cc12" and report it.
Output: > 20.6 µM (inactive)

Input: Find the measured Potency of "CC(=O)Oc1ccc2c(C)cc(=O)[nH]c2c1" and report it.
Output: > 20.6 µM (inactive)

====

System: CP256
Experiment summary: qHTS profiling for inhibitors of Plasmodium falciparum proliferation (AID 504749); note: nearly all actives have a fitted effect of over 60% in size; note: potency is the fitted concentration of half-maximal effect
Test context: P. falciparum in erythrocytes, SYBR Green DNA, 72 h; series mostly up to 28.7 µM
Records with an inconclusive call do not appear. Calls of active or inactive are those of the source. The call rests on the fitted dose curve; in most records, active means well fitted inhibition curve with a large enough effect; inconclusive means small, poorly fitted or top-dose-only effect; inactive means flat fitted curve, though single readings scatter.
Recorded metric: Potency

[
  {
    "Compound": "CC(=O)C1(O)Cc2c(O)c3c(c(O)c2C(OC2CC(N)C(O)C(C)O2)C1)C(=O)c1c(O)cccc1C3=O (configuration not stated)",
    "Assayed system": "CP256",
    "Potency": "10 µM (active)"
  },
  {
    "Compound": "C=C(NCc1ccccc1)c1ccccc1O",
    "Assayed system": "CP256",
    "Potency": "inactive"
  },
  {
    "Compound": "CC[C@H]1OC(=O)[C@H](C)C(=O)[C@H](C)[C@@H](OC2O[C@H](C)C[C@H](N(C)C)[C@@H]2O)[C@@](C)(OC)C[C@@H](C)C(=O)[C@@H](C)C2N(CCCCn3cnc(-c4cccnc4)c3)C(=O)O[C@@]21C (some centres not stated)",
    "Assayed system": "CP256",
    "Potency": "inactive"
  },
  {
    "Compound": "Cc1cnc(C(=O)O)cn1",
    "Assayed system": "CP256",
    "Potency": "inactive"
  },
  {
    "Compound": "CC(C)C[C@@H](NC(=O)[C@@H](Cc1ccccc1)NC(=O)c1cnccn1)B(O)O",
    "Assayed system": "CP256",
    "Potency": "0.141 µM (active)"
  },
  {
    "Compound": "O=C(O)CC(O)CC(O)/C=C/c1c(C2CC2)nc2ccccc2c1-c1ccc(F)cc1 (configuration not stated)",
    "Assayed system": "CP256",
    "Potency": "inactive"
  }
]

Input: Recall the reported Potency of CC[C@@]1(O)CC2CN(CCc3c([nH]c4ccccc34)[C@](C(=O)OC)(c3cc4c(cc3OC)N(C)C3[C@@](O)(C(=O)OC)C(OC(C)=O)[C@]5(CC)C=CCN6CC[C@@]43C65)C2)C1 (some centres not stated) on CP256 and write it down.
Output: 3.16 µM (active)

Input: Recall the reported Potency of CNC(=O)C(N)CSC(C)C1=C(C)c2cc3[n-]c(cc4nc(cc5[n-]c(cc1n2)c(C)c5CCC(=O)O)C(CCC(=O)O)=C4C)c(C)c3C(C)SCC(N)C(=O)NC.[Fe+2] (configuration not stated) on CP256 and write it down.
Output: inactive
